- tested system: Tyrosine-protein kinase Fyn (Homo sapiens, UniProt P06241);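 also: enzymatic inhibition of Fyn kinase activity measured with Poly(Glu:Tyr) as the phosphorylation substrate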; also: in other assays of this panel Not Active means under 50% inhibition at 10 µM
- Sequence (P06241 whole entry): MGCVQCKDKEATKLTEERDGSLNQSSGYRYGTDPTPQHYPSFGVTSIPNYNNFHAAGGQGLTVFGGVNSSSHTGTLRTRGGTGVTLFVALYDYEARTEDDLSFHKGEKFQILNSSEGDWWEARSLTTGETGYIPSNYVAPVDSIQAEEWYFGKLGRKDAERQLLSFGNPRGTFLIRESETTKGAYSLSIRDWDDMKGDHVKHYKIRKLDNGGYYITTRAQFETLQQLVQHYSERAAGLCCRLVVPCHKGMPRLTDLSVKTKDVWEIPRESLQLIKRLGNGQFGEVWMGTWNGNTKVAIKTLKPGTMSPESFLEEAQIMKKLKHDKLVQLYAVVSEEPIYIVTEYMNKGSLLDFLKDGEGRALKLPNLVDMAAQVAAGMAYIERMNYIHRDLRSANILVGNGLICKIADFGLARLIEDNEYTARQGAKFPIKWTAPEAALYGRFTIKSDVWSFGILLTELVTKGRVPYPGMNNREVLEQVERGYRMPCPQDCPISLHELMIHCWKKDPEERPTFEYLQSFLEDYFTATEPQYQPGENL
- method notes: biochemical
- Format: cell-based, Insect cells
- conditions: insect cells
endpoint: IC50

compound | experimental result
OC(CCCN1CCCCC1)(c1ccccc1)c1ccccc1 | Not Active
Cn1c(=O)c2c(ncn2CC(O)CO)n(C)c1=O (centres undefined) | Not Active
O.O.O.O.O.O.[Cl-].[Cl-].[Sr+2] [STRONTIUM CHLORIDE HEXAHYDRATE] | Not Active
C[C@]12C=CC(=O)C=C1CC[C@@H]1[C@@H]2[C@@H](O)C[C@@]2(C)[C@H]1CC[C@]2(O)C(=O)CO | Not Active
